Tested on: Rattus norvegicus
ASSAY_DETAILS: Antiinflammatory activity in rats by using reverse passive Arthus reaction (RPAR) assay at dose level of 50 mg/Kg by peroral administration
Format: functional

COMPOUND: NC1CCCc2ccc(SCc3ccccc3)cc2C1O (stereo in doubt; 4w)
Inhibitory response [%]: 31
--
COMPOUND: C[S+]([O-])c1ccc2c(c1)C(O)C(N)CCC2 (stereo not drawn)
Inhibitory response [%]: 7
--
COMPOUND: O=C1NC2CCCc3ccc(F)cc3C2O1 (stereo in doubt; 20i)
Inhibitory response [%]: 78
--
COMPOUND: COc1ccc2c(c1)C1OC(=O)NC1CCC2 (stereo in doubt; 19g)
Inhibitory response [%]: 20
--
COMPOUND: NC1CCCc2ccc(SCc3ccccc3)cc2C1O (stereo in doubt; 4v)
Inhibitory response [%]: 99
--
COMPOUND: Cc1ccc2c(c1)CCCC1NC(=O)OC21 (stereo not drawn)
Inhibitory response [%]: 28
--
COMPOUND: O=C1NC2CCCc3ccc(Cl)cc3C2O1 (stereo in doubt; 20h)
Inhibitory response [%]: 29
--
COMPOUND: COc1cc2c(cc1OC)C(O)C(N)CCC2.Cl (stereo in doubt; 4ee)
Inhibitory response [%]: 13

====

Tested on: Rattus norvegicus
ASSAY_DETAILS: Antiinflammatory activity in rats by using reverse passive Arthus reaction (RPAR) assay at dose level of 50 mg/Kg by peroral administration
Type: functional
Inhibitory response values by entry

COMPOUND: COc1cc2c(cc1OC)C(O)C(N)CCCC2.Cl (stereo unspecified)
Inhibitory response (%): 0
--
COMPOUND: O=C1NC2CCCc3cc(F)ccc3C2O1 (stereo in doubt; 20e)
Inhibitory response (%): 96
--
COMPOUND: CC(C)c1ccc2c(c1)C(O)C(N)CCC2 (stereo unspecified)
Inhibitory response (%): 100
--
COMPOUND: O=C1N[C@@H]2CCCc3cccnc3[C@@H]2O1
Inhibitory response (%): 82
--
COMPOUND: CC(C)c1ccc2c(c1)C1OC(=O)NC1CCC2 (stereo in doubt; 20g)
Inhibitory response (%): 37
--
COMPOUND: NC[C@@H](O)c1ccccc1
Inhibitory response (%): 21

====

System: Rattus norvegicus
ASSAY_DETAILS: Antiinflammatory activity in rats by using reverse passive Arthus reaction (RPAR) assay at dose level of 50 mg/Kg by peroral administration
Type: functional
MEASURED_ATTRIBUTE: Inhibitory response (%)

COMPOUND: NC1CCCc2ccc(F)cc2C1O (stereo not given)
TESTED_SYSTEM: Rattus norvegicus
MEASURED_ATTRIBUTE: Inhibitory response
READOUT_UNITS: %
EXPERIMENTAL_VALUE: 96
//
COMPOUND: COc1cc2c(cc1SC)C(O)C(N)CCC2 (stereo in doubt; 4gg)
TESTED_SYSTEM: Rattus norvegicus
MEASURED_ATTRIBUTE: Inhibitory response
READOUT_UNITS: %
EXPERIMENTAL_VALUE: 29
//
COMPOUND: CC(C)Oc1ccc2c(c1)C(O)C(N)CCC2 (stereo in doubt; 4n)
TESTED_SYSTEM: Rattus norvegicus
MEASURED_ATTRIBUTE: Inhibitory response
READOUT_UNITS: %
EXPERIMENTAL_VALUE: 4
//
COMPOUND: COc1cc2c(cc1OC)C(O)C(N)CCC2.Cl (stereo in doubt; 4dd)
TESTED_SYSTEM: Rattus norvegicus
MEASURED_ATTRIBUTE: Inhibitory response
READOUT_UNITS: %
EXPERIMENTAL_VALUE: 93
//
COMPOUND: COc1cc2c(cc1[S+](C)[O-])C(O)C(N)CCC2 (stereo in doubt; 4ii)
TESTED_SYSTEM: Rattus norvegicus
MEASURED_ATTRIBUTE: Inhibitory response
READOUT_UNITS: %
EXPERIMENTAL_VALUE: 0
//
COMPOUND: CSc1ccc2c(c1)C(O)C(N)CCC2 (stereo in doubt; 4k)
TESTED_SYSTEM: Rattus norvegicus
MEASURED_ATTRIBUTE: Inhibitory response
READOUT_UNITS: %
EXPERIMENTAL_VALUE: 90
//
COMPOUND: CC(C)c1ccc2c(c1)C1OC(=O)NC1CCC2 (stereo in doubt; 19h)
TESTED_SYSTEM: Rattus norvegicus
MEASURED_ATTRIBUTE: Inhibitory response
READOUT_UNITS: %
EXPERIMENTAL_VALUE: 7
//
COMPOUND: O=C1NC2CCCc3ccc(F)cc3C2O1 (stereo in doubt; 19j)
TESTED_SYSTEM: Rattus norvegicus
MEASURED_ATTRIBUTE: Inhibitory response
READOUT_UNITS: %
EXPERIMENTAL_VALUE: 19
//
COMPOUND: NC[C@H]1c2ccccc2CCC[C@H]1O
TESTED_SYSTEM: Rattus norvegicus
MEASURED_ATTRIBUTE: Inhibitory response
READOUT_UNITS: %
EXPERIMENTAL_VALUE: 8
//
COMPOUND: CC(C)(C)C(=O)OCOc1ccc2c(c1)C(O)C(N)CCC2 (stereo in doubt; 4q)
TESTED_SYSTEM: Rattus norvegicus
MEASURED_ATTRIBUTE: Inhibitory response
READOUT_UNITS: %
EXPERIMENTAL_VALUE: 16
